Listed here: items and their measured IC50.
system_tested: 5-hydroxytryptamine receptor 2A/Metabotropic glutamate receptor 2 (Homo sapiens, UniProt P28223+Q14416)
Sequence (P28223 whole entry): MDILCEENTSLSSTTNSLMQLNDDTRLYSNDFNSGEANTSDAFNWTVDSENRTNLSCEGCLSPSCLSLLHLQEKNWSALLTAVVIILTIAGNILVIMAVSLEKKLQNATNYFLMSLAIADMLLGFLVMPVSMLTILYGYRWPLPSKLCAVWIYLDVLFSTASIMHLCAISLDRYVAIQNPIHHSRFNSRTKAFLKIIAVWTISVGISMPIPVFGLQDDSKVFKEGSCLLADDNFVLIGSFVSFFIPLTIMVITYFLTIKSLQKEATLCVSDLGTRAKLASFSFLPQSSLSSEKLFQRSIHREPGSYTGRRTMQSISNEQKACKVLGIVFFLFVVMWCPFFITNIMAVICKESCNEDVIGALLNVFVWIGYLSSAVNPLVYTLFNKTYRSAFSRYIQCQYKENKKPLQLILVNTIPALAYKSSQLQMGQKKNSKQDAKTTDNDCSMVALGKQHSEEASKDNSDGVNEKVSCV
Sequence (Q14416 whole entry): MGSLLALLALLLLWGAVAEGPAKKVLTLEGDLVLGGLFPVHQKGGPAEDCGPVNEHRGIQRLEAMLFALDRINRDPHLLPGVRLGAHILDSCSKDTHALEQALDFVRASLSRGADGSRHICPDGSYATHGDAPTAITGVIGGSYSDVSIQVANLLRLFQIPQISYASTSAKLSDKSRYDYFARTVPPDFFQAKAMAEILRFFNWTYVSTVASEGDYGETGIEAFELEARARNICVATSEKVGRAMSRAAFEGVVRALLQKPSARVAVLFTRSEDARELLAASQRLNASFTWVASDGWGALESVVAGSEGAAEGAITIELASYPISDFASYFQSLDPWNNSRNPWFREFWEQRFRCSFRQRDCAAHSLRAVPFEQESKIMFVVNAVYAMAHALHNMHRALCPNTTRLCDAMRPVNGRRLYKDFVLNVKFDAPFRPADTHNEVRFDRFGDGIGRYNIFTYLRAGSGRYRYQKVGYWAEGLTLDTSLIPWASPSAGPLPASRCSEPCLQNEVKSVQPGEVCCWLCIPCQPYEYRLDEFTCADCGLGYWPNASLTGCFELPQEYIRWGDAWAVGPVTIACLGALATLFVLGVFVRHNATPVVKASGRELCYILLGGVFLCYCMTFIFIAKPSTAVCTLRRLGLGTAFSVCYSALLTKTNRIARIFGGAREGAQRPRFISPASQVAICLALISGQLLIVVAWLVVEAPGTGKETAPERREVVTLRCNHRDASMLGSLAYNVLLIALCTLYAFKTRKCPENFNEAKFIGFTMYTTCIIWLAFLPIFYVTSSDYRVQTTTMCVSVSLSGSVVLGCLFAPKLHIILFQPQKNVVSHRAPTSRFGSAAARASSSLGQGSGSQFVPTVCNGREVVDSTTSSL
assay_overview: Antagonist activity at human 5HT2A/mGlu2 receptor expressed in HEK293 cells co-expressing Gqo5 assessed as inhibition of 5HT-induced intracellular Ca2+ mobilization incubated for 1 hr by Fluo-4 dye based fluorescence assay 5HT2A_HUMAN/GRM2_HUMAN P28223/Q14416
Format: functional, cell-based
Note: unit µM is implicit; provide only the numeric part.

• COc1c(OCCOCCOCCOCCOCCOCCOCCOCCOc2ccc(C3CCN(c4ccn5c(CC6CC6)nnc5c4Cl)CC3)cc2)cccc1C(=O)C1CCN(CCc2ccc(F)cc2)CC1 = 0.47
• COc1c(OCCOCCOCCOc2ccc(C3CCN(c4ccn5c(CC6CC6)nnc5c4Cl)CC3)cc2)cccc1C(=O)C1CCN(CCc2ccc(F)cc2)CC1 = 9.9
• COCCOc1cccc(C(=O)C2CCN(CCc3ccc(F)cc3)CC2)c1OC = 0.023

Entry COc1cccc(C(=O)C2CCN(CCc3ccc(F)cc3)CC2)c1OC has what IC50? 0.0054

###

Listed here: items and their measured IC50.
system_tested: 5-hydroxytryptamine receptor 2A/Metabotropic glutamate receptor 2 (Homo sapiens, UniProt P28223+Q14416)
assay_overview: Antagonist activity at human 5HT2A/mGlu2 receptor expressed in HEK293 cells co-expressing Gqo5 assessed as inhibition of glutamate-induced intracellular Ca2+ mobilization incubated for 1 hr by Fluo-4 dye based fluorescence assay 5HT2A_HUMAN/GRM2_HUMAN P28223/Q14416
Format: functional, cell-based
Note: unit nM is implicit; provide only the numeric part.

Here is how some compounds turned out for IC50.
* COc1c(OCCOCCOCCOCCOc2ccc(C3CCN(c4ccn5c(CC6CC6)nnc5c4Cl)CC3)cc2)cccc1C(=O)C1CCN(CCc2ccc(F)cc2)CC1 | 990
* COc1c(OCCOCCOCCOCCOCCOCCOCCOCCOCCOCCOc2ccc(C3CCN(c4ccn5c(CC6CC6)nnc5c4Cl)CC3)cc2)cccc1C(=O)C1CCN(CCc2ccc(F)cc2)CC1 | 1200
* COc1c(O)cccc1C(=O)C1CCN(CCc2ccc(F)cc2)CC1 | 23

Entry COc1c(OCCOCCOCCOCCOCCOCCOc2ccc(C3CCN(c4ccn5c(CC6CC6)nnc5c4Cl)CC3)cc2)cccc1C(=O)C1CCN(CCc2ccc(F)cc2)CC1 has what IC50? 890

###

Listed here: items and their measured Ki.
system_tested: 5-hydroxytryptamine receptor 2A/Metabotropic glutamate receptor 2 (Homo sapiens, UniProt P28223+Q14416)
assay_overview: Displacement of [3H]-ketanserin from human 5HT2A/mGlu2 receptor expressed in HEK293 cell membranes incubated for 2 hrs by scintillation counting method
details: read-out: Ki
Note: unit nM is implicit; provide only the numeric part.

* COc1c(OCCOCCOCCOc2ccc(C3CCN(c4ccn5c(CC6CC6)nnc5c4Cl)CC3)cc2)cccc1C(=O)C1CCN(CCc2ccc(F)cc2)CC1 | 840
* COc1c(OCCOCCOCCOCCOCCOCCOc2ccc(C3CCN(c4ccn5c(CC6CC6)nnc5c4Cl)CC3)cc2)cccc1C(=O)C1CCN(CCc2ccc(F)cc2)CC1 | 120

Entry COc1c(OCCOCCOCCOCCOCCOCCOCCOCCOCCOCCOc2ccc(C3CCN(c4ccn5c(CC6CC6)nnc5c4Cl)CC3)cc2)cccc1C(=O)C1CCN(CCc2ccc(F)cc2)CC1 has what Ki? 70

Entry COc1c(OCCOCCOCCOCCOCCOCCOCCOCCOc2ccc(C3CCN(c4ccn5c(CC6CC6)nnc5c4Cl)CC3)cc2)cccc1C(=O)C1CCN(CCc2ccc(F)cc2)CC1 has what Ki? 120

Entry COCCOc1cccc(C(=O)C2CCN(CCc3ccc(F)cc3)CC2)c1OC has what Ki? 6.5

Entry COc1c(OCCOCCOCCOCCOc2ccc(C3CCN(c4ccn5c(CC6CC6)nnc5c4Cl)CC3)cc2)cccc1C(=O)C1CCN(CCc2ccc(F)cc2)CC1 has what Ki? 100
